- MEASUREMENT PROTOCOL: qHTS for Inhibitors of ATXN expression: Validation of Cytotoxic Assay (AID 588349);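 also: cells exposed to compound for 72 hr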
- MEASUREMENT PARAMETERS: cytotoxicity counter-screen for ATXN expression inhibitors, cell viability; series mostly up to 57.1 µM
Records with an inconclusive call do not appear. Calls of active or inactive are those of the source. Calls follow the shape of the dose curve; as a rule, active = well fitted cell-killing curve with a large enough effect; inconclusive = small, poorly fitted or top-dose-only effect, or effect the other way; inactive = flat fitted curve, though single readings scatter.
Write down one outcome, taken from active, inactive

Sample answers from the record:
COMPOUND	LABEL
NC(=O)c1cc(N2CC2)c([N+](=O)[O-])cc1[N+](=O)[O-]	inactive
CCCN1CCC[C@@H](c2cccc(O)c2)C1	inactive
C[C@H](N)Cc1cccc(C(F)(F)F)c1	inactive

# input Hey, what did the test say about NNC(N)=O ?
# output inactive

# input Per the records of this test, what outcome belongs to CC(C)[C@@]1(NC(=O)[C@@H]2C[C@@H]3c4cccc5[nH]cc(c45)C[C@H]3N(C)C2)O[C@@]2(O)[C@@H]3CCCN3C(=O)[C@H](Cc3ccccc3)N2C1=O ?
# output inactive

# input Status in this test for NCC(O)c1cc(O)c(O)cc1F (stereo not drawn) ?
# output inactive

# input // outcome(item) with item = CP(=O)(O)C1=CCNCC1
# output inactive

# input Please state the recorded outcome for this compound: Ic1ccccc1CNC1C2CCN(CC2)C1C(c1ccccc1)c1ccccc1 (stereo not drawn)
# output active

# input Each compound tested received a call. Report the one for NC(Cc1ccc(N(CCCl)CCCl)cc1)C(=O)O (stereo not drawn) .
# output inactive

# input Which outcome was assigned to CCCn1c(=O)c2[nH]c(C3CCCC3)nc2n(CCCOC(=O)c2ccc(S(=O)(=O)F)cc2)c1=O in this test?
# output inactive

# input Field: outcome | Entry: O=C1CC[C@@]2(O)C3Cc4ccc(O)c5c4C2(CCN3CC2CC2)[C@H]1O5 (stereo partly drawn)
# output inactive

# input What call does the record list for CN1CC[C@@]2(C)c3cc(O)ccc3N(C)C12 (stereo partly drawn) ?
# output active

# input Can you look up the reported call for N[C@@]1(C(=O)O)CC[C@@H](C(=O)O)C1 for me?
# output inactive

* * *

- MEASUREMENT PROTOCOL: qHTS for Inhibitors of the Functional Ribonucleoprotein Complex (vRNP) of Lymphocytic Choriomeningitis Arenaviruses (LCMV): Viability assay - alamar blue signal for LCMV Primary Screen (AID 1347085); also: % is scaled to controls: 0 for no effect and ±100 for the full control effect; nearly all actives have a fitted effect of over 80% in size
- MEASUREMENT PARAMETERS: alamar blue viability counter-screen, LCMV vRNP screen cells; series mostly up to 57.5 µM
Results filed as inconclusive are left out. The source made the active and inactive calls. Calls come from the whole dose curve; tested in HEK293 reporter line.
The categories you may choose from are 1.0 (active), 0.0 (inactive)

COMPOUND	LABEL
CCCN(CCC)C1Cc2cc(OC)c(OC)cc2C1	0.0

# input Hey, what did the test say about CCCN1CC[C@@H]2c3cc(O)ccc3CC[C@@H]21 ?
# output 0.0

# input Give the logged outcome of this assay for the following compound: C=CCN(C1=NCCN1)c1c(Cl)cccc1Cl
# output 0.0

* * *

- Test system: CRL-7250
- MEASUREMENT PROTOCOL: Cytotoxic Profiling of Annotated Libraries Using Quantitative High-Throughput Screening (AID 1296008); also: % is scaled to controls: 0 for no effect and ±100 for the full control effect; nearly all actives have a fitted effect of over 60% in size
- MEASUREMENT PARAMETERS: Five cell lines viability, CellTiter-Glo ATP luminescence, 48-72 h; hits give low values
- Method: Cell-based phenotypic screening is a commonly used approach to discover biological pathways, novel drug targets, chemical probes and high-quality hit-to-lead molecules. […] A pintool (Kalypsys) was used to transfer 23 nL of compound solution to the 1536-well assay plates. […] Plates were left at room temperature for 10 min before imaging the ATP-coupled luminescence using a ViewLux microplate imager (PerkinElmer, Waltham, MA).
Records with an inconclusive call do not appear.
OBSERVABLE: max response (%)
Supply the numeric figure in %, leaving out any unit text.

Examples with answers:
>>> print(df.to_string())
                                   compound  recorded_number
0  COc1cc2c(cc1OC)[C@@]13CCN4CC5=CCO[C@H]6CC(=O)N2[C@H]1[C@H]6[C@H]5C[C@H]43           -0.912
1  CC(=O)OC1CC(O)C2(C)C(CC(OC(C)=O)C3(C)C2CCC2(C)C(c4ccoc4)C(=O)C4OC423)C1(C)C (stereo not drawn)            -9.87

Consider the additional compound presented here.
Recorded max response (compound Cc1c(Cl)cccc1S(=O)(=O)Nc1nc(CC(=O)N2CCN(C)CC2)cs1 ): 0.391
